system: PRKG2; settings: concentration: 1 μM, replicates: in singlicate; n = 1;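 also: KINOMEscan kinase panel screen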
Listed compounds paired with reported %Inh
OBSERVABLE: %Inh (%)

1. Cn1cc(-c2ccc3c(c2)CCN3C(=O)Cc2cc(F)cc(C(F)(F)F)c2)c2c(N)ncnc21 : 16
2. Cn1cc(-c2cnc(N)c3c(-c4ccc5c(c4)CCN5C(=O)Cc4ccccc4)csc23)cn1 : 0
3. COc1cc(Nc2nccc(N3CCC(NS(=O)(=O)c4ccc(NC(C)=O)cc4)CC3)n2)cc(OC)c1OC : 0
4. CS(=O)(=O)c1cccc(CNc2nc(Nc3ccc4c(c3)CCC(=O)N4)ncc2C(F)(F)F)c1 : 0
5. Nc1ncnc2scc(-c3ccc(NC(=O)Cc4cc(F)ccc4F)cc3)c12.O=C(O)C(F)(F)F : 0
6. Cc1ccc(NC(=O)c2ccnc(N3CCCCC3)c2)cc1-c1ccc(C(=O)NCC2CC2)cc1 : 0
7. COc1cccc(CC(=O)N2CCc3cc(-c4cn(C)c5ncnc(N)c45)ccc32)c1 : 0
8. CC(=O)Nc1cn2nc(Oc3cccc(NC(=O)c4cccc(C(F)(F)F)c4)c3)ccc2n1 : 13
